test system: Streptococcus pneumoniae; assay: Antibacterial activity against Streptococcus pneumoniae ATCC 49619 by agar dilution method; type: functional; settings: ATCC49619
As shown below, each of these compounds has a reported MIC value.
Please state the figure in mg/L; there is no need to write the unit.

INSERT INTO results (molecular_string, value_observed) VALUES
  ('CC[C@H]1OC(=O)[C@H](C)C(=O)[C@H](C)[C@@H](O[C@@H]2O[C@H](C)C[C@H](N(C)C)[C@H]2O)[C@](C)(OC)C[C@@H](C)/C(=N\OC/C=C/c2cccs2)[C@H](C)[C@@H](O)[C@]1(C)O', 0.06);

Pending compound:
For the compound `CC[C@H]1OC(=O)[C@H](C)C(=O)[C@H](C)[C@@H](O[C@@H]2O[C@H](C)C[C@H](N(C)C)[C@H]2O)[C@](C)(OC)C[C@@H](C)/C(=N\OC/C=C/c2ccc(OC)c(OC)c2)[C@H](C)[C@@H](O)[C@]1(C)O` , report MIC.
0.25

---

system: Streptococcus pneumoniae; assay: Antibacterial activity against penicillin-susceptible Streptococcus pneumoniae isolate S2 by agar dilution method; format: functional
# key: entry, value: MIC
The reply should contain only the number, in µg/mL.

INSERT INTO measurements (molecular_string, study_system, unit_symbol, value_observed) VALUES
  ('CC[C@H]1OC(=O)[C@H](C)C(=O)[C@H](C)[C@@H](O[C@@H]2O[C@H](C)C[C@H](N(C)C)[C@H]2O)[C@](C)(OC)C[C@@H](C)/C(=N\OC/C=C/c2cccs2)[C@H](C)[C@@H](O)[C@]1(C)O', 'Streptococcus pneumoniae', 'µg/mL', 0.06);

Specify reported MIC for the molecule shown: `CC[C@H]1OC(=O)[C@H](C)C(=O)[C@H](C)[C@@H](O[C@@H]2O[C@H](C)C[C@H](N(C)C)[C@H]2O)[C@](C)(OC)C[C@@H](C)/C(=N\OC/C=C/c2cccnc2)[C@H](C)[C@@H](O)[C@]1(C)O`
0.06

Write down MIC measured for item `CC[C@H]1OC(=O)[C@H](C)C(=O)[C@H](C)[C@@H](O[C@@H]2O[C@H](C)C[C@H](N(C)C)[C@H]2O)[C@](C)(OC)C[C@@H](C)/C(=N\OC/C=C/c2cncnc2)[C@H](C)[C@@H](O)[C@]1(C)O`
0.125

Give the value of MIC reported for the following: `CC[C@H]1OC(=O)[C@H](C)C(=O)[C@H](C)[C@@H](O[C@@H]2O[C@H](C)C[C@H](N(C)C)[C@H]2O)[C@](C)(OC)C[C@@H](C)/C(=N\OC/C=C/c2cccc(C3OCCO3)c2)[C@H](C)[C@@H](O)[C@]1(C)O`
0.06

Return MIC (reported value) for this molecule: `CC[C@H]1OC(=O)[C@H](C)C(=O)[C@H](C)[C@@H](O[C@@H]2O[C@H](C)C[C@H](N(C)C)[C@H]2O)[C@](C)(OC)C[C@@H](C)/C(=N\OC/C=C/c2ccc(OC)c(OC)c2)[C@H](C)[C@@H](O)[C@]1(C)O`
0.06

For `CC[C@H]1OC(=O)[C@H](C)C(=O)[C@H](C)[C@@H](O[C@@H]2O[C@H](C)C[C@H](N(C)C)[C@H]2O)[C@](C)(OC)C[C@@H](C)/C(=N\OC/C=C/c2cncc3ccccc23)[C@H](C)[C@@H](O)[C@]1(C)O` , write its MIC.
0.25

Provide measured MIC value, entry: `CC[C@H]1OC(=O)[C@H](C)C(=O)[C@H](C)[C@@H](O[C@@H]2O[C@H](C)C[C@H](N(C)C)[C@H]2O)[C@](C)(OC)C[C@@H](C)/C(=N\OC/C=C/c2cccc(OC)c2)[C@H](C)[C@@H](O)[C@]1(C)O`
0.25

Tell me measured MIC for `CC[C@H]1OC(=O)[C@H](C)C(=O)[C@H](C)[C@@H](O[C@@H]2O[C@H](C)C[C@H](N(C)C)[C@H]2O)[C@](C)(OC)C[C@@H](C)/C(=N\OC/C=C/c2ccc3[nH]ccc3c2)[C@H](C)[C@@H](O)[C@]1(C)O` please.
0.06

---

test system: Streptococcus pneumoniae; experiment: Antibacterial activity against penicillin-susceptible Streptococcus pneumoniae isolate S2 by agar dilution method; type: functional
Each entry below carries its recorded MIC.
A number alone suffices; assume µg/mL.

// Input: `CC[C@H]1OC(=O)[C@H](C)C(=O)[C@H](C)[C@@H](O[C@@H]2O[C@H](C)C[C@H](N(C)C)[C@H]2O)[C@](C)(OC)C[C@@H](C)/C(=N\OC/C=C/c2ccc3c(c2)CCC3=O)[C@H](C)[C@@H](O)[C@]1(C)O` . Output its MIC only.
0.06

Recall and state the measured MIC for `CC[C@H]1OC(=O)[C@H](C)C(=O)[C@H](C)[C@@H](O[C@@H]2O[C@H](C)C[C@H](N(C)C)[C@H]2O)[C@](C)(OC)C[C@@H](C)/C(=N\OC/C=C/c2cnc3ccccc3c2)[C@H](C)[C@@H](O)[C@]1(C)O` .
0.06

Could you please provide reported MIC for `CC[C@H]1OC(=O)[C@H](C)C(=O)[C@H](C)[C@@H](O[C@@H]2O[C@H](C)C[C@H](N(C)C)[C@H]2O)[C@](C)(OC)C[C@@H](C)/C(=N\OC/C=C/c2ccc3c(c2)OCO3)[C@H](C)[C@@H](O)[C@]1(C)O` ? Thanks!
0.06

For the compound `CC[C@H]1OC(=O)[C@H](C)C(=O)[C@H](C)[C@@H](O[C@@H]2O[C@H](C)C[C@H](N(C)C)[C@H]2O)[C@](C)(OC)C[C@@H](C)/C(=N\OC/C=C/c2ccc(OC)cc2)[C@H](C)[C@@H](O)[C@]1(C)O` , give its reported MIC.
0.25

---

system: Streptococcus pneumoniae; test: Antibacterial activity against Streptococcus pneumoniae ATCC 49619 by agar dilution method; format: functional; conditions: ATCC49619
// values below are reported MIC
The reply should be a number in µg/mL, with the unit left off.

INSERT INTO assay_data (molecular_string, unit_symbol, value_observed) VALUES
  ('CC[C@H]1OC(=O)[C@H](C)C(=O)[C@H](C)[C@@H](O[C@@H]2O[C@H](C)C[C@H](N(C)C)[C@H]2O)[C@](C)(OC)C[C@@H](C)/C(=N\OC/C=C/c2ccc3c(c2)CCC3=O)[C@H](C)[C@@H](O)[C@]1(C)O', 'µg/mL', 0.25);

Lab note: next compound to report on.
Note MIC for the compound shown: `CC[C@H]1OC(=O)[C@H](C)C(=O)[C@H](C)[C@@H](O[C@@H]2O[C@H](C)C[C@H](N(C)C)[C@H]2O)[C@](C)(OC)C[C@@H](C)/C(=N\OC/C=C/c2cccc(C3OCCO3)c2)[C@H](C)[C@@H](O)[C@]1(C)O`
0.25

---

Entries annotated with measured MIC
system: Streptococcus pneumoniae; test: Antibacterial activity against penicillin-susceptible Streptococcus pneumoniae isolate S1 by agar dilution method; format: functional
# output: bare number, implied unit µg/mL

GET MIC | system: Streptococcus pneumoniae | item: `CC[C@H]1OC(=O)[C@H](C)C(=O)[C@H](C)[C@@H](O[C@@H]2O[C@H](C)C[C@H](N(C)C)[C@H]2O)[C@](C)(OC)C[C@@H](C)/C(=N\OC/C=C/c2cncnc2)[C@H](C)[C@@H](O)[C@]1(C)O`
0.125

Find MIC for `CC[C@H]1OC(=O)[C@H](C)C(=O)[C@H](C)[C@@H](O[C@@H]2O[C@H](C)C[C@H](N(C)C)[C@H]2O)[C@](C)(OC)C[C@@H](C)/C(=N\OC/C=C/c2cncc3ccccc23)[C@H](C)[C@@H](O)[C@]1(C)O` on Streptococcus pneumoniae and write it down.
0.25

---

system: Streptococcus pneumoniae; assay: Antibacterial activity against Streptococcus pneumoniae ATCC 49619 by agar dilution method; format: functional; details: ATCC49619
Listed here are compounds together with their documented MIC.
Numeric answer only, unit µg/mL assumed.

Use the examples below as a reference point.
INSERT INTO results (molecular_string, quantity_measured, unit_symbol, value_observed) VALUES
  ('CC[C@H]1OC(=O)[C@H](C)C(=O)[C@H](C)[C@@H](O[C@@H]2O[C@H](C)C[C@H](N(C)C)[C@H]2O)[C@](C)(OC)C[C@@H](C)/C(=N\OC/C=C/c2ccc3[nH]ccc3c2)[C@H](C)[C@@H](O)[C@]1(C)O', 'MIC', 'µg/mL', 0.25),
  ('CC[C@H]1OC(=O)[C@H](C)C(=O)[C@H](C)[C@@H](O[C@@H]2O[C@H](C)C[C@H](N(C)C)[C@H]2O)[C@](C)(OC)C[C@@H](C)/C(=N\OC/C=C/c2cccc(OC)c2)[C@H](C)[C@@H](O)[C@]1(C)O', 'MIC', 'µg/mL', 1),
  ('CC[C@H]1OC(=O)[C@H](C)C(=O)[C@H](C)[C@@H](O[C@@H]2O[C@H](C)C[C@H](N(C)C)[C@H]2O)[C@](C)(OC)C[C@@H](C)/C(=N\OC/C=C/c2ccc3c(c2)OCO3)[C@H](C)[C@@H](O)[C@]1(C)O', 'MIC', 'µg/mL', 0.25);

Write down MIC measured for item `CC[C@H]1OC(=O)[C@H](C)C(=O)[C@H](C)[C@@H](O[C@@H]2O[C@H](C)C[C@H](N(C)C)[C@H]2O)[C@](C)(OC)C[C@@H](C)/C(=N\OC/C=C/c2ccc(OC)cc2)[C@H](C)[C@@H](O)[C@]1(C)O`
0.5
